Taken from ChEMBL document CHEMBL1136971.

Consider the following pKi values measured on Kappa-type opioid receptor (Homo sapiens, UniProt P41145).
Sequence (P41145 whole entry): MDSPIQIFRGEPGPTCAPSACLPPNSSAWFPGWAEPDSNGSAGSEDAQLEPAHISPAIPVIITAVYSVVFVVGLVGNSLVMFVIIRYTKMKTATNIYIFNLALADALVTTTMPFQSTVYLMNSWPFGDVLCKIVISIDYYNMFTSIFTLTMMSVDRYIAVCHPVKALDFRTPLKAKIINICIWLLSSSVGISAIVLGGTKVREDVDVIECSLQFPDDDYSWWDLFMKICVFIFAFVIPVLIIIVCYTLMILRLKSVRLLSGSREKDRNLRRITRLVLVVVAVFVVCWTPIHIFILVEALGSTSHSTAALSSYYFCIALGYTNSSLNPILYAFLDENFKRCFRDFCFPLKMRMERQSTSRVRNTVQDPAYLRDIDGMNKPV
pKi: −log10 of the molar value. Square brackets hold non-standard residues; d marks the D form. Peptide text beside a SMILES is read from it.

{"compound": "C[C@@H]1NC(=O)[C@@H](Cc2c[nH]c3ccccc23)NC(=O)[C@H](Cc2ccccc2)NC(=O)[C@H]2CCCN2C1=O (cyclo(A[dP]F[dW]))", "pKi": 8.28}
{"compound": "CC(=O)N[C@@H](Cc1ccccc1)C(=O)N[C@@H](Cc1c[nH]c2ccccc12)C(=O)N[C@@H](Cc1ccccc1)C(=O)N1CCC[C@@H]1C(N)=O", "pKi": "< 6.00"}
{"compound": "CC(=O)N[C@@H](Cc1ccccc1)C(=O)N[C@H](Cc1c[nH]c2ccccc12)C(=O)N[C@@H](Cc1ccccc1)C(=O)N1CCC[C@@H]1C(N)=O", "pKi": "< 6.00"}
